Reference source for all entries: paper PMC6222422

- test: in vitro
- setup.conditions: Syrian hamster (Mesocricetus auratus)
assay.readout: CC50

Ask: Param item = Fc1ccc(NC(=S)NCCc2c[nH]c3ccccc23)cc1Cl [Compound 28] ; retrieve measured CC50.
Reply: 30 µM

Ask: Param item = Fc1ccc(NC(=S)NCCc2c[nH]c3ccccc23)cc1 [Compound 17] ; retrieve measured CC50.
Reply: 30 µM

Hey, can you go through the list below and give me CC50 for every item?
1. S=C(NCCc1c[nH]c2ccccc12)Nc1ccc(Br)cc1 [Compound 8]
2. S=C(NCCc1c[nH]c2ccccc12)NCc1ccccc1 [Compound 10]
3. S=C(NCCc1c[nH]c2ccccc12)NC1CCCCC1 [Compound 9]

Reply:
1. 10 µM
2. 52 µM
3. 13 µM

Hey, can you go through the list below and give me CC50 for every item?
1. C[C@@]1(O)[C@H](O)[C@@H](CO)O[C@H]1n1ccc(N)nc1=O [2′-C-methyl-cytidine, 2′-C-methylcytidine, reference compound]
2. CCOC(=O)NC(=S)NCCc1c[nH]c2ccccc12 [Compound 20]

Reply:
> 100 µM
> 100 µM

Hey, can you go through the list below and give me CC50 for every item?
1. Fc1ccccc1NC(=S)NCCc1c[nH]c2ccccc12 [Compound 11]
2. CCCCc1ccc(NC(=S)NCCc2c[nH]c3ccccc23)c(C)c1 [Compound 27]

Reply:
1: 34 µM; 2: 9.5 µM
